Notes on AC50 obtained with Histamine H3 receptor (Homo sapiens).
Sequence (Q9Y5N1 whole entry): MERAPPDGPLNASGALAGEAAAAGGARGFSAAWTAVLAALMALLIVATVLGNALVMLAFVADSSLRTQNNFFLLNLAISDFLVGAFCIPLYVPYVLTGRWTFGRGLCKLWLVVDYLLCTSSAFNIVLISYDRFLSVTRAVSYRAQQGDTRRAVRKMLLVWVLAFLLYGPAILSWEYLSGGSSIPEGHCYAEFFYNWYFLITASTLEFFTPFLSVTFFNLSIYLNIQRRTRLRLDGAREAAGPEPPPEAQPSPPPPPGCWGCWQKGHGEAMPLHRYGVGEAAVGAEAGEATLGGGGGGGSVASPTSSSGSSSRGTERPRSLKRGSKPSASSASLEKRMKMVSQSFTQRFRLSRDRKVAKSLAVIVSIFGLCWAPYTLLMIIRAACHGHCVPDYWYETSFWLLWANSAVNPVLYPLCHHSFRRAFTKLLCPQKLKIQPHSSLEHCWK

If you can, please state the reported AC50 value of COc1cccc2c1C(=O)c1c(O)c3c(c(O)c1C2=O)C[C@@](O)(C(C)=O)C[C@@H]3O[C@H]1C[C@H](N)[C@H](O)[C@H](C)O1 .
18 µM

What would you report for CC(/C=C1\SC(=S)N(CC(=O)O)C1=O)=C\c1ccccc1 ?
> 30 µM

What would you report for CC[C@@H](CO)NC(=O)[C@@H]1C=C2c3cccc4[nH]cc(c34)C[C@H]2N(C)C1 ?
> 30 µM

What would you report for COc1cc(OC)c(C(=O)CCCN2CCCC2)c(OC)c1 ?
20 µM

What would you report for CC#CCn1c(N2CCC[C@@H](N)C2)nc2c1c(=O)n(Cc1nc(C)c3ccccc3n1)c(=O)n2C ?
> 10 µM
